Assay: Stability in RPMI culture media assessed as half life at 1.5 mM by HPLC
Assay type: physicochemical
Settings: 1500 µM
measurement-name: t1/2 (s)
Numbers only; they are read as s.

// query Which t1/2 is reported for this compound? C[C@@]12c3ccc4c(c3C(=O)c3occ(c31)C(=O)C[C@H]2O)CCC4=O [DEMETHOXYVIRIDIN]
// result 28.2

// query Which t1/2 is reported for this compound? C[C@@]12c3ccc4c(c3C(=O)c3occ(c31)C(=O)C[C@H]2OC(=O)CCC(=O)O)CCC4=O
// result 25.8

// query Which t1/2 is reported for this compound? C[C@]12C(=C(O)C(=O)c3c1ccc1c3CCC1=O)/C(=C/NCC(=O)O)C(=O)C[C@H]2OC(=O)CCC(=O)O
// result 3840

// query Which t1/2 is reported for this compound? COC[C@H]1OC(=O)c2coc3c2[C@@]1(C)C1=C(C3=O)[C@@H]2CCC(=O)[C@@]2(C)C[C@H]1OC(C)=O [WORTMANNIN]
// result 59.4

====

Assay: Stability in PBS at pH 7.4 assessed as half life at 1.5 mM by HPLC in presence of NAc-lysine
Type: physicochemical
Conditions: buffer, pH 7.4, 1500 µM
Please go through the items and note down their t1/2.
Numbers only; they are read as min.

// query Which t1/2 is reported for this compound? C[C@]12C(=C(O)C(=O)c3c1ccc1c3CCC1=O)/C(=C/NCC(=O)O)C(=O)C[C@H]2OC(=O)CCC(=O)O
// result 94

// query Which t1/2 is reported for this compound? C[C@@]12c3ccc4c(c3C(=O)c3occ(c31)C(=O)C[C@H]2OC(=O)CCC(=O)O)CCC4=O
// result 23

// query Which t1/2 is reported for this compound? COC[C@H]1OC(=O)c2coc3c2[C@@]1(C)C1=C(C3=O)[C@@H]2CCC(=O)[C@@]2(C)C[C@H]1OC(C)=O
// result 18.4

// query Which t1/2 is reported for this compound? C[C@@]12c3ccc4c(c3C(=O)c3occ(c31)C(=O)C[C@H]2O)CCC4=O
// result 0.61

====

Please go through the items and note down their IC50.
Target: Phosphatidylinositol 4,5-bisphosphate 3-kinase catalytic subunit alpha isoform (Homo sapiens, UniProt P42336)
Sequence (P42336 whole entry, canonical isoform): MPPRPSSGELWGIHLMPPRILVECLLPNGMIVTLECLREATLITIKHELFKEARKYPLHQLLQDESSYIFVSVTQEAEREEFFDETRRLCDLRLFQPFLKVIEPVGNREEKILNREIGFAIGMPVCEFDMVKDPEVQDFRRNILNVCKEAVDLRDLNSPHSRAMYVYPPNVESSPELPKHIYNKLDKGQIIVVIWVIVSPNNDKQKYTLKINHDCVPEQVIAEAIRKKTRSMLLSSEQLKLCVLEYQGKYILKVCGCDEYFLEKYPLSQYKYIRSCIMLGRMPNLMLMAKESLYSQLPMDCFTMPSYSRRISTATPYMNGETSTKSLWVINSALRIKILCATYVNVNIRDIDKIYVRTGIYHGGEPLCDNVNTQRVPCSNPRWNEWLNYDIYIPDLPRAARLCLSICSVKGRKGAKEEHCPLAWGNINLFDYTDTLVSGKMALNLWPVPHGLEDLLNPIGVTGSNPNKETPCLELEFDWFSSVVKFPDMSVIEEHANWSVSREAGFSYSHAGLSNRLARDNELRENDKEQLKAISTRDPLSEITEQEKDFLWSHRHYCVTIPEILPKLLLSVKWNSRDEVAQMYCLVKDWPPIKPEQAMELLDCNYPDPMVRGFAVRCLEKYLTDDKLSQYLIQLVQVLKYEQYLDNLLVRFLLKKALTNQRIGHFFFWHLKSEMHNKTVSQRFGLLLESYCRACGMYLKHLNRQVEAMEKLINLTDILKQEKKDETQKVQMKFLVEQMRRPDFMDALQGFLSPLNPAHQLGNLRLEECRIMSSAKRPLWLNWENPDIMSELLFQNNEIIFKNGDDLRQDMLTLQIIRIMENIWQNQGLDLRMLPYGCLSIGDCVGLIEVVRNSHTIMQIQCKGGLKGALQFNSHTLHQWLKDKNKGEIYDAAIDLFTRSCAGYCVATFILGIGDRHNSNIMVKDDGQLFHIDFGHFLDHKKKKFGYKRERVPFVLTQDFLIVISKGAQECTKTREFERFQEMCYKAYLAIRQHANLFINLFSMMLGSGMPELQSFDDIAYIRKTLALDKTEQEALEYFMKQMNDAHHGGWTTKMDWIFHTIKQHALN
Experiment: Inhibition of PI3 kinase
Numbers only; they are read as nM.

// query Which IC50 is reported for this compound? C[C@@]12c3ccc4c(c3C(=O)c3occ(c31)C(=O)C[C@H]2OC(=O)CCC(=O)O)CCC4=O
// result 20

// query Which IC50 is reported for this compound? C[C@@]12c3ccc4c(c3C(=O)c3occ(c31)C(=O)C[C@H]2O)CCC4=O
// result 1

// query Which IC50 is reported for this compound? COC[C@H]1OC(=O)/C(=C\N2CCCC2C(=O)O)C2=C(O)C(=O)C3=C([C@H](OC(C)=O)C[C@]4(C)C(=O)CC[C@@H]34)[C@]21C (some centres undefined)
// result 68

====

Assay: Stability in PBS at pH 7.4 assessed as half life at 1.5 mM by HPLC in presence of proline
Assay type: physicochemical
Settings: buffer, pH 7.4, 1500 µM
Please go through the items and note down their t1/2.
Numbers only; they are read as min.

// query Which t1/2 is reported for this molecule? COC[C@H]1OC(=O)c2coc3c2[C@@]1(C)C1=C(C3=O)[C@@H]2CCC(=O)[C@@]2(C)C[C@H]1OC(C)=O [WORTMANNIN]
// result 1.5

// query Which t1/2 is reported for this molecule? C[C@@]12c3ccc4c(c3C(=O)c3occ(c31)C(=O)C[C@H]2O)CCC4=O [DEMETHOXYVIRIDIN]
// result 0.59

// query Which t1/2 is reported for this molecule? C[C@]12C(=C(O)C(=O)c3c1ccc1c3CCC1=O)/C(=C/NCC(=O)O)C(=O)C[C@H]2OC(=O)CCC(=O)O
// result 126

// query Which t1/2 is reported for this molecule? C[C@@]12c3ccc4c(c3C(=O)c3occ(c31)C(=O)C[C@H]2OC(=O)CCC(=O)O)CCC4=O
// result 108
